- tgt: Recombinant STAT6 protein (STAT6(W123-T658)) (Homo sapiens)
- Construct: STAT6(W123-T658)
- Sequence (P42226 123-658): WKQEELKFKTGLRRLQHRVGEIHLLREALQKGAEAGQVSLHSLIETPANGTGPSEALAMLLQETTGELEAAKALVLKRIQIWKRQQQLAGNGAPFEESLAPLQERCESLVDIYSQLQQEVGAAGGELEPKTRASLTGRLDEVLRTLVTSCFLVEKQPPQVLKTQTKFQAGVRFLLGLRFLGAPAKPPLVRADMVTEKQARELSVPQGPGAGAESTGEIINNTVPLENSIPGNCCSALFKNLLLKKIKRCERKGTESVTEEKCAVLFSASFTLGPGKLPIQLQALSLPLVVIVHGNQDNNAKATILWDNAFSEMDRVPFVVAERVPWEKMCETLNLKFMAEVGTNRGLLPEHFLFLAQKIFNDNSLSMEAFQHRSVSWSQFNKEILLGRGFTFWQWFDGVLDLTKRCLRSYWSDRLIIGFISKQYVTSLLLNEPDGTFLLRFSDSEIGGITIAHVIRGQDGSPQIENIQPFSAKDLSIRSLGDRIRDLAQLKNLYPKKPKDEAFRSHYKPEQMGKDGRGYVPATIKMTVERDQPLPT
- protocolDescription: STAT6 Fluorescence Polarization (FP) Assay
- testParameters: STAT6(W123-T658) 250 nM, probe 5-FAM-ApYKPFQDLI-NH2 2 nM, 45-minute incubation
pIC50: −log10 of the molar value.
endpointName: pIC50

Some solved cases for reference:
1. O=C(N[C@H]1C[C@H]2C[C@H]2C[C@H]2CC[C@@H](C(=O)N3CC(c4nc5ccccc5[nH]4)C3)N2C1=O)c1cc2cc(C(F)(F)P(=O)(O)O)ccc2s1 = 4.52 to 5.52
2. O=C(N[C@H]1C[C@@H]2C[C@@H]2C[C@H]2CC[C@@H](C(=O)NC3CN(c4ccccn4)C3)N2C1=O)c1cc2cc(C(F)(F)P(=O)(O)O)ccc2s1 = 5.52 to 6.52
3. C[C@@H]1[C@@H](n2ccnc2)CN1C(=O)[C@@H]1CC[C@@H]2C[C@H]3C[C@H]3C[C@H](NC(=O)c3cc4cc(C(F)(F)P(=O)(O)O)ccc4s3)C(=O)N21 = 4.52 to 5.52
4. O=C(N[C@H]1C[C@H]2C[C@H]2C[C@H]2CC[C@@H](C(=O)N3CC(c4ccccn4)C3)N2C1=O)c1cc2cc(CP(=O)(O)O)ccc2s1 = < 4.52

// recorded pIC50 for O=C(N[C@H]1C[C@@H]2C[C@@H]2C[C@H]2CC[C@@H](C(=O)N3CC(c4cc(C(F)F)on4)C3)N2C1=O)c1cc2cc(C(F)P(=O)(O)O)ccc2s1 (some centres unmarked) : 4.52 to 5.52

* * *

- tgt: Recombinant STAT3 protein (STAT3(G127-I722)) (Homo sapiens, UniProt P40763)
- Construct: STAT3(G127-I722)
- Sequence (P40763 127-722, species assumed): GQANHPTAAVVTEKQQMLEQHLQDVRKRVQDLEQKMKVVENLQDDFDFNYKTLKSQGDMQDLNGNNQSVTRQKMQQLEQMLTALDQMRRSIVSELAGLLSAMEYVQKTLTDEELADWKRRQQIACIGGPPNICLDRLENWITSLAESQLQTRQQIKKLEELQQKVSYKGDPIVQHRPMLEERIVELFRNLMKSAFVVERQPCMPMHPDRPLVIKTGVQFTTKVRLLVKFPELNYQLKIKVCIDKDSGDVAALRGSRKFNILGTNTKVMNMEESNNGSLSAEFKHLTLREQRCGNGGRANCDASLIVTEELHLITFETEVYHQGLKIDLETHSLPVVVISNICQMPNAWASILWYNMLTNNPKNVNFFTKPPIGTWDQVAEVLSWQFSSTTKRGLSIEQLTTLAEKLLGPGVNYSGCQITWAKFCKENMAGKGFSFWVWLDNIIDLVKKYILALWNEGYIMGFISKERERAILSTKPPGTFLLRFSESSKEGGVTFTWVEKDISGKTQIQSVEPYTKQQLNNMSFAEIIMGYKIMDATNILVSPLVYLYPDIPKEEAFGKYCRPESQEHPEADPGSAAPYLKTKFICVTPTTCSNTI
- protocolDescription: STAT3 Fluorescence Polarization (FP) Assay
- Assay type: binding
- testParameters: STAT3(G127-I722) 25 nM, probe 5-FAM-GpYLPQTV-NH2 2 nM, 45-minute incubation
pIC50: −log10 of the molar value.
endpointName: pIC50

Reference set (4 entries):
1. O=C(N[C@H]1C[C@H]2C[C@H]2C[C@H]2CC[C@@H](C(=O)N[C@@H]3CCN(c4cccnc4)C3)N2C1=O)c1cc2cc(C(F)(F)P(=O)(O)O)ccc2s1 = > 7.00
2. O=C(N[C@H]1C[C@H]2C[C@H]2C[C@H]2CC[C@@H](C(=O)N3CC(n4ccnc4)C3)N2C1=O)c1cc2cc(C(F)(F)P(=O)(O)O)ccc2s1 = > 7.00
3. COC1CN(C(=O)C2CN(C(=O)[C@@H]3CC[C@@H]4C[C@H]5C[C@H]5C[C@H](NC(=O)c5cc6cc(C(F)(F)P(=O)(O)O)ccc6s5)C(=O)N43)C2)C1 = > 7.00
4. O=C(N[C@H]1C[C@@H]2C[C@@H]2C[C@H]2CC[C@@H](C(=O)N3CCOc4cc(F)ccc43)N2C1=O)c1cc2cc(C(F)P(=O)(O)O)ccc2s1 (some centres unmarked) = 5.00 to 6.00

Proceed to the following item.
For this compound ( O=C(N[C@H]1C[C@H]2C[C@H]2C[C@H]2CC[C@@H](C(=O)N3CC(n4ccnc4)C3)N2C1=O)c1cc2cc(CP(=O)(O)O)ccc2s1 ), measured pIC50 is 6.00 to 7.00

* * *

- tgt: Recombinant STAT6 protein (STAT6(W123-T658)) (Homo sapiens, UniProt P42226)
- Construct: STAT6(W123-T658)
- protocolDescription: STAT6 Fluorescence Polarization (FP) Assay
- testParameters: STAT6(W123-T658) 250 nM, probe 5-FAM-ApYKPFQDLI-NH2 2 nM, 45-minute incubation
# IC50 per entry

Previously resolved entries follow.
1) O=C(N[C@H]1C[C@@H]2C[C@@H]2C[C@H]2CC[C@@H](C(=O)N3CCN(C(=O)[C@@H]4CCOC4)CC3)N2C1=O)c1cc2cc(C(F)(F)P(=O)(O)O)ccc2s1 = 0.3 to 3 µM
2) O=C(N[C@H]1C[C@H]2C[C@H]2C[C@H]2CC[C@@H](C(=O)N3CC(n4ccnc4)C3)N2C1=O)c1ccc2ccc(C(F)(F)P(=O)(O)O)cc2c1 = 3 to 30 µM
3) O=C(N[C@H]1C[C@@H]2C[C@@H]2C[C@H]2CC[C@@H](C(=O)N3CC(C4CCOCC4)C3)N2C1=O)c1cc2cc(C(F)(F)P(=O)(O)O)ccc2s1 = 3 to 30 µM

Per the record, Cn1cc(C2CN(C(=O)[C@@H]3CC[C@@H]4C[C@H]5C[C@H]5C[C@H](NC(=O)c5cc6cc(C(F)(F)P(=O)(O)O)ccc6s5)C(=O)N43)C2)cn1 has IC50 of 3 to 30 µM

* * *

- tgt: Recombinant STAT3 protein (STAT3(G127-I722)) (Homo sapiens)
- Construct: STAT3(G127-I722)
- protocolDescription: STAT3 Fluorescence Polarization (FP) Assay
- testParameters: STAT3(G127-I722) 25 nM, probe 5-FAM-GpYLPQTV-NH2 2 nM, 45-minute incubation
pIC50: −log10 of the molar value.
Here the recorded pIC50 is given for each entry.

1) O=C(N[C@H]1C[C@@H]2C[C@@H]2C[C@H]2CC[C@@H](C(=O)N3CC(Cc4ccccc4F)C3)N2C1=O)c1cc2cc(CP(=O)(O)O)ccc2s1 = 5.00 to 6.00
2) CC(=O)N1C[C@H](NC(=O)[C@@H]2CC[C@@H]3C[C@H]4C[C@H]4C[C@H](NC(=O)c4cc5cc(C(F)(F)P(=O)(O)O)ccc5s4)C(=O)N32)[C@@H](O)C1 = 6.00 to 7.00
3) O=C(N[C@H]1C[C@@H]2C[C@@H]2C[C@H]2CC[C@@H](C(=O)N3CCN(C4COC4)CC3)N2C1=O)c1cc2cc(C(F)(F)P(=O)(O)O)ccc2s1 = 6.00 to 7.00
4) CS(=O)(=O)CC1CN(C(=O)[C@@H]2CC[C@@H]3C[C@H]4C[C@H]4C[C@H](NC(=O)c4cc5cc(C(F)P(=O)(O)O)ccc5s4)C(=O)N32)C1 (some centres unmarked) = > 7.00

Notebook: O=C(N[C@H]1C[C@H]2C[C@H]2C[C@H]2CC[C@@H](C(=O)N3CC(c4cnccc4F)C3)N2C1=O)c1cc2cc(C(F)P(=O)(O)O)ccc2s1 (some centres unmarked) , pIC50 read as > 7.00

* * *

Parameter: IC50. Scope: all listed entries.
- tgt: Recombinant STAT6 protein (STAT6(W123-T658)) (Homo sapiens)
- Construct: STAT6(W123-T658)
- Sequence (P42226 123-658): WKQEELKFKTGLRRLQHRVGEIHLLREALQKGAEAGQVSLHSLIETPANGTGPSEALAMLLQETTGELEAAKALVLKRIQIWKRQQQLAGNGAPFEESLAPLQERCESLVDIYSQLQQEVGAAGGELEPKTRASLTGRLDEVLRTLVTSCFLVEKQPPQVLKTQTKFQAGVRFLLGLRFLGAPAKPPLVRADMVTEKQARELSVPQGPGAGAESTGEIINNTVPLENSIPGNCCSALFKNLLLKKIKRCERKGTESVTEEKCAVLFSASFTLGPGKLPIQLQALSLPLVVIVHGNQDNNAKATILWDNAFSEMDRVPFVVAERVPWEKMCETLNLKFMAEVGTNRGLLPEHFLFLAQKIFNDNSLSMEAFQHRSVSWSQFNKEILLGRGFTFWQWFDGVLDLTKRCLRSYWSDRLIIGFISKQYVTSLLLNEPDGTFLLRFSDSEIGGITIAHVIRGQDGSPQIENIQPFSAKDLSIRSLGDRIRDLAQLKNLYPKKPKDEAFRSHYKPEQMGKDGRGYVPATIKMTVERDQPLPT
- protocolDescription: STAT6 Fluorescence Polarization (FP) Assay
- testParameters: STAT6(W123-T658) 250 nM, probe 5-FAM-ApYKPFQDLI-NH2 2 nM, 45-minute incubation

CN1CCN(c2ccncc2C2CN(C(=O)[C@@H]3CC[C@@H]4C[C@H]5C[C@H]5C[C@H](NC(=O)c5cc6cc([C@@H](F)P(=O)(O)O)ccc6s5)C(=O)N43)C2)CC1 (single isomer, unassigned) has a reported IC50 of > 30 µM

The measured IC50 associated with Cc1cccc(C2CN(C(=O)[C@@H]3CC[C@@H]4C[C@@H]5C[C@@H]5C[C@H](NC(=O)c5cc6cc([C@@H](F)P(=O)(O)O)ccc6s5)C(=O)N43)C2)n1 (single isomer, unassigned) reads 3 to 30 µM

Item: O=C(N[C@H]1C[C@@H]2C[C@@H]2C[C@H]2CC[C@@H](C(=O)N3CC(c4cnccc4F)C3)N2C1=O)c1cc2cc(C(F)(F)P(=O)(O)O)ccc2s1 | IC50: 0.3 to 3 µM

Recorded result, O=C(N[C@H]1C[C@@H]2C[C@@H]2C[C@H]2CC[C@@H](C(=O)N3CC4C3CCN4c3cccnc3)N2C1=O)c1cc2cc(CP(=O)(O)O)ccc2s1 (stereo partly drawn) , IC50: 3 to 30 µM

Recorded result, O=C(N[C@H]1C[C@@H]2C[C@@H]2C[C@H]2CC[C@@H](C(=O)N3CC4C3CCN4c3cccnc3)N2C1=O)c1cc2cc(C(F)(F)P(=O)(O)O)ccc2s1 (stereo partly drawn) , IC50: 0.3 to 3 µM

What the record says about Cc1cn(C)c(N2C[C@H](NC(=O)[C@@H]3CC[C@@H]4C[C@H]5C[C@H]5C[C@H](NC(=O)c5cc6cc(C(F)P(=O)(O)O)ccc6s5)C(=O)N43)[C@@H](F)C2)n1 (stereo partly drawn) : IC50 is 3 to 30 µM

Kindly note the recorded IC50 for O=C(N[C@H]1C[C@@H]2C[C@@H]2C[C@H]2CC[C@@H](C(=O)N3CC(n4ccnc4)C3)N2C1=O)c1cc2cc(CP(=O)(O)O)ccc2s1 , which is > 30 µM

Summary for this molecule, O=C(N[C@H]1C[C@H]2C[C@H]2C[C@H]2CC[C@@H](C(=O)NC3CN(C(=O)CCC(F)(F)F)C3)N2C1=O)c1cc2cc(C(F)(F)P(=O)(O)O)ccc2s1 : IC50 is 3 to 30 µM

N#CC1(c2ccccn2)CN(C(=O)[C@@H]2CC[C@@H]3C[C@@H]4C[C@@H]4C[C@H](NC(=O)c4cc5cc([C@@H](F)P(=O)(O)O)ccc5s4)C(=O)N32)C1 (single isomer, unassigned) has a reported IC50 of 3 to 30 µM
